system: C17.2 differentiated neurons, thapsigargin death, ATPlite, 24 h; assay: ER stress death protection in C17.2 cells – cell-based, differentiated mouse neural stem C17.2, ATP luminescence, SAR follow-up (AID 1353); details: measured here: survival at thapsigargin 5 uM; at 25 µM; stronger effect = higher value
reported.metric: survival (%)
Give your result in % as a bare value.

IN: Which value of survival has been reported for COc1ccc(C2CC(=O)C3=C(C2)Nc2ccccc2NC3c2cccc(C(F)(F)F)c2)cc1OC (stereo not given) in the records?
OUT: 59

====

Reported survival values for the following molecules.
tested on: C17.2 differentiated neurons, thapsigargin death, ATPlite, 24 h; experiment: ER stress death protection in C17.2 cells – cell-based, differentiated mouse neural stem C17.2, ATP luminescence, SAR follow-up (AID 1353); conditions: measured here: survival at thapsigargin 5 uM; at 25 µM; stronger effect = higher value
Kindly provide the numeric value in % only, without the unit symbol.

Some solved entries appear below for comparison.
- molecule: "CCCOc1ccc(C2Nc3ccccc3NC3=C2C(=O)CC(c2ccc(OC)c(OC)c2)C3)cc1 (stereo unspecified)"
  survival [%]: 62
- molecule: "O=C1CC(c2ccccc2)CC2=C1C(c1c(F)cccc1Cl)Nc1ccccc1N2 (stereo unspecified)"
  survival [%]: 87
- molecule: "COc1ccc(C2CC(=O)C3=C(C2)Nc2ccccc2NC3c2cc(C)ccc2C)cc1 (stereo unspecified)"
  survival [%]: 69
- molecule: "CC1(C)CC(=O)C2=C(C1)Nc1ccccc1NC2c1ccc(-c2ccccc2)cc1 (stereo unspecified)"
  survival [%]: 45
- molecule: "COc1ccc(C2CC(=O)C3=C(C2)Nc2ccccc2NC3c2cccc(Br)c2)cc1OC (stereo unspecified)"
  survival [%]: 67

IN: // lookup survival for CCOc1cccc(C2Nc3ccccc3NC3=C2C(=O)CC(c2ccc(OC)cc2)C3)c1 (stereo unspecified)
OUT: 83

====

Catalogue of survival values
test system: C17.2 differentiated neurons, thapsigargin death, ATPlite, 24 h; test: ER stress death protection in C17.2 cells – cell-based, differentiated mouse neural stem C17.2, ATP luminescence, SAR follow-up (AID 1353); conditions: measured here: survival at thapsigargin 5 uM; at 25 µM; stronger effect = higher value
Please reply with the bare figure in % and do not write the unit itself.

Worked examples follow.
- molecule: "CSc1ccc(C2Nc3ccccc3NC3=C2C(=O)CC(c2ccccc2)C3)cc1 (centres undefined)"
  measured.number: 86
- molecule: "COc1ccc(C2CC(=O)C3=C(C2)Nc2ccccc2NC3c2cccc(Oc3ccccc3)c2)cc1OC (centres undefined)"
  measured.number: 68
- molecule: "COc1ccc(C2CC(=O)C3=C(C2)Nc2ccccc2NC3c2ccccc2C(F)(F)F)cc1OC (centres undefined)"
  measured.number: 55

Let's switch to this molecule now.
IN: # query: survival of entry CCOc1cc(C2Nc3ccccc3NC3=C2C(=O)CC(c2ccc(OC)cc2)C3)cc(Cl)c1O (centres undefined)
OUT: 79
